target: T1, human IL13 (human, UniProt P35225 35-146, biotinylated in the SPR assays (sites not given)); assay: Affinity to IL13; method not re-described
T1 construct: Peprotech; also called hIL13; recombinant human IL13
T1 sequence (P35225 other isoform, or with tags, fused parts or gaps limits assumed): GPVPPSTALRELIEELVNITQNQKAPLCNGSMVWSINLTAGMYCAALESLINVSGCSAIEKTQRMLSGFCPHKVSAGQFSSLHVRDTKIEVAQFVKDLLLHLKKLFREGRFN
measured property: Kd
Kindly format the answer as number then unit.

Note down Kd recorded for C01_6G9_V1_C06_53G6_V1 (designed binder, bispecific IL13/IL4 ankyrin repeat protein with (GGGGS)4 linker; also called bispecific AR protein) DLDKKLLEAARAGQDDEVRILMANGADVNARDSYGSTPLHLAAREGHLEIVEVLLKYGADVNAADFIGDTPLHLAAYRGHLEIVEVLLKYGADVNASDITGETPLHLAAQIGHLEIVEVLLKHGADVNAQDKFGKTAFDISIDNGNEDLAEILQKLNGGGGSGGGGSGGGGSGGGGSDLGKKLLEAARAGQDDEVRILMANGADVNATDDWGDTLLHLAATDGHLEIVEVLLKAGADVNANDAIGDTPLHLAALYGHLEIVEVLLKYGADVNATDLHGFTPLHLAAFWGHLEIVEVLLKHGADVNAQDKFGKTAFDISIDNGNEDLAEILQKLN
9.3 pM
